Just for reference, patent US20130065883A1 is where these values come from.

system.tested: FLT3 (Homo sapiens)
Sequence (P36888 27-993): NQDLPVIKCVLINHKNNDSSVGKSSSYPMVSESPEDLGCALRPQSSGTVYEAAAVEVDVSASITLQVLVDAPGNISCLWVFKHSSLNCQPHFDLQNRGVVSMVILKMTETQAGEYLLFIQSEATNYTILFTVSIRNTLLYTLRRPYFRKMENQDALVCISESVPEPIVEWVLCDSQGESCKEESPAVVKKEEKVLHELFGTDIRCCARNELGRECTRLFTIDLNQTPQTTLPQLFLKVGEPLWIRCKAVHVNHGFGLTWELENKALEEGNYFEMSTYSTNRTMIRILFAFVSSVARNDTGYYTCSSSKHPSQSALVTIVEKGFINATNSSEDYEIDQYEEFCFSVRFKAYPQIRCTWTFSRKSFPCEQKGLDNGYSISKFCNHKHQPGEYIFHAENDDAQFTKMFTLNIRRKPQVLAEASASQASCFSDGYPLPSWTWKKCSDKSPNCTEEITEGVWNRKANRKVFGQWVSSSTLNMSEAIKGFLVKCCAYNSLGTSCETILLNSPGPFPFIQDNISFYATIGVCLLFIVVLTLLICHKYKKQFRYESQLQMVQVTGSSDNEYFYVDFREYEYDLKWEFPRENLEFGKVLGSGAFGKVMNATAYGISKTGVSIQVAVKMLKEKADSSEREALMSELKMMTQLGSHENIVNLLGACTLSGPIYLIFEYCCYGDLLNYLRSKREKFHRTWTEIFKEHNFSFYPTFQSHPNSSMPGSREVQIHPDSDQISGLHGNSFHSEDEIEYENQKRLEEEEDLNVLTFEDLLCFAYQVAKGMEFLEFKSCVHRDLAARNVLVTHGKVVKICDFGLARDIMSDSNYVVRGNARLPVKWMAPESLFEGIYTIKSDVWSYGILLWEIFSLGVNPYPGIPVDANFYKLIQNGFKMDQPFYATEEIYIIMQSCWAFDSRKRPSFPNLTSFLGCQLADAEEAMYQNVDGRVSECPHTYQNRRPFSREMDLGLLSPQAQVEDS
procedure.summary: FLT3 biochemical assay (ADP Hunter);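 also: FLT3 enzymatic activity quantified through the ADP produced by the kinase reaction, detected with an ADP Hunter readout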
conditions.used: semi-quantitative class
Quick reference for IC50 among some compounds

Oc1ccc(-n2nnc3ccc(N4CCCCCC4)nc32)cc1 :: > 1 µM

Exam item: So what's the measured IC50 for this one? CCN1CCOC2(CCN(c3ccc4nnn(-c5cccc(OC(F)(F)F)c5)c4n3)CC2)C1
Marked response: 0.1 to 1 µM

Exam item: So what's the measured IC50 for this one? Oc1ccc(-n2nnc3ccc(NCc4ccc(F)cc4)nc32)cc1
Marked response: > 1 µM

Exam item: So what's the measured IC50 for this one? Nc1ccc(-n2nnc3ccc(NCC4CCNCC4)nc32)cn1
Marked response: 0.1 to 1 µM
